Assay: Cyto-toxicity (MTT assay)
Assay type: cell-based
Strictly below 30% in viability at 4 days, 0.01 µM: Fulfilled. Otherwise: Not fulfilled.

- smiles-notation: "CC(C)C1=C2[C@H]3CC[C@@H]4[C@@]5(C)CC[C@H](OC(=O)[C@H]6C[C@@H](C(=O)O)C6(C)C)C(C)(C)[C@@H]5CC[C@@]4(C)[C@]3(C)CC[C@@]2(NC(=O)C(C)(C)NC(=O)c2ccco2)CC1=O"
  class: "Not fulfilled"
- smiles-notation: "CC(C)C1=C2[C@H]3CC[C@@H]4[C@@]5(C)CC[C@H](OC(=O)[C@H]6C[C@@H](C(=O)O)C6(C)C)C(C)(C)[C@@H]5CC[C@@]4(C)[C@]3(C)CC[C@@]2(NC(=O)C(C)(C)NC(=O)c2ccccc2)CC1=O"
  class: "Not fulfilled"

Quick check: does `CC(C)C1=C2[C@H]3CC[C@@H]4[C@@]5(C)CC[C@H](OC(=O)[C@H]6C[C@@H](C(=O)O)C6(C)C)C(C)(C)[C@@H]5CC[C@@]4(C)[C@]3(C)CC[C@@]2(NC(=O)C(C)(C)NC(=O)CN2CCCCC2)CC1=O` have viability at 4 days, 0.01 µM under 30%?
Not fulfilled

Quick check: does `CC(C)C1=C2[C@H]3CC[C@@H]4[C@@]5(C)CC[C@H](OC(=O)[C@H]6C[C@@H](C(=O)O)C6(C)C)C(C)(C)[C@@H]5CC[C@@]4(C)[C@]3(C)CC[C@@]2(NC(=O)C2(NC(=O)c3ccc(F)cc3)CC2)CC1=O` have viability at 4 days, 0.01 µM under 30%?
Fulfilled

Quick check: does `CC(C)C1=C2[C@H]3CC[C@@H]4[C@@]5(C)CC[C@H](OC(=O)[C@H]6C[C@@H](C(=O)O)C6(C)C)C(C)(C)[C@@H]5CC[C@@]4(C)[C@]3(C)CC[C@@]2(NC(=O)C(C)(C)NC(=O)C2(c3ccccc3)CCCC2)CC1=O` have viability at 4 days, 0.01 µM under 30%?
Not fulfilled

Quick check: does `CC(C)C1=C2[C@H]3CC[C@@H]4[C@@]5(C)CC[C@H](OC(=O)[C@H]6C[C@@H](C(=O)O)C6(C)C)C(C)(C)[C@@H]5CC[C@@]4(C)[C@]3(C)CC[C@@]2(NC(=O)C2(NC(=O)c3ccc(Cl)cc3)CCCC2)CC1=O` have viability at 4 days, 0.01 µM under 30%?
Not fulfilled

Quick check: does `Cc1cccnc1C(=O)NC(C)(C)C(=O)N[C@@]12CC[C@]3(C)[C@H](CC[C@@H]4[C@@]5(C)CC[C@H](OC(=O)[C@H]6C[C@@H](C(=O)O)C6(C)C)C(C)(C)[C@@H]5CC[C@]43C)C1=C(C(C)C)C(=O)C2` have viability at 4 days, 0.01 µM under 30%?
Fulfilled

Entry source: patent US20170008921A1
